B1: library; a variant is named by its letters at N, in order (parent)
chain: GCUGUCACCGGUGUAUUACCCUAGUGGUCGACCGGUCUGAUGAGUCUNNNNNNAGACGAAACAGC

Variants of: B1
Test Description: normalized RNA/DNA level without ligand (relative to sTRSVctl = 100) (log10 (% of sTRSVctl)); ligand: hypoxanthine (xanthine aptamer); higher = less ribozyme self-cleavage, higher mRNA level
Condition Details: HEK293T, reporter: mCherry (pCS4076), ligand present: no
Property Label: normalized RNA/DNA level without ligand (log10)
# respond with the number and nothing more

Input line: Retrieve normalized RNA/DNA level without ligand (log10) measured for AUAGGA and print it.
Output line: 1.66

Input line: Retrieve normalized RNA/DNA level without ligand (log10) measured for CAUGCU and print it.
Output line: 1.9

Input line: Retrieve normalized RNA/DNA level without ligand (log10) measured for GAUAAC and print it.
Output line: 1.71

Input line: Retrieve normalized RNA/DNA level without ligand (log10) measured for UUGUAA and print it.
Output line: 1.9

Input line: Retrieve normalized RNA/DNA level without ligand (log10) measured for AGGAAC and print it.
Output line: 1.66

Input line: Retrieve normalized RNA/DNA level without ligand (log10) measured for ACAAAA and print it.
Output line: 1.81

Input line: Retrieve normalized RNA/DNA level without ligand (log10) measured for GUGGCA and print it.
Output line: 1.83

Input line: Retrieve normalized RNA/DNA level without ligand (log10) measured for UAUGGU and print it.
Output line: 1.53

Input line: Retrieve normalized RNA/DNA level without ligand (log10) measured for CCACCG and print it.
Output line: 1.84

Input line: Retrieve normalized RNA/DNA level without ligand (log10) measured for CACCGU and print it.
Output line: 1.89

Input line: Retrieve normalized RNA/DNA level without ligand (log10) measured for UCGAGU and print it.
Output line: 1.2

Input line: Retrieve normalized RNA/DNA level without ligand (log10) measured for CCCGUU and print it.
Output line: 1.9

Input line: Retrieve normalized RNA/DNA level without ligand (log10) measured for CUUGAA and print it.
Output line: 1.71

Input line: Retrieve normalized RNA/DNA level without ligand (log10) measured for UCAUGG and print it.
Output line: 1.69
